# Test system: K-562 (human chronic myelogenous leukemia)
# protocol description: Alamar blue cytotoxicity assay, 72 h
# Assay type: cell-based
# condition context: read-out: IC50 and 95% CI; K-562, 72 h
measured endpoint: pIC50
Lab note: report pIC50 as minus log10 of the concentration in molar units, number only.

compound: Cn1ccnc1[S-].F[P-](F)(F)(F)(F)F.[Ru+2].c1ccc(-c2ccccn2)nc1.c1ccc(P(CCCCP(c2ccccc2)c2ccccc2)c2ccccc2)cc1 [Complex 1, [Ru(mmi)(bipy)(dppb)]PF6]
readout number: 5.85

Read the next record carefully.
Q. Identify the measured pIC50 of F[P-](F)(F)(F)(F)F.[Ru+2].[S-]C1=NCCS1.c1ccc(-c2ccccn2)nc1.c1ccc(P(CCCCP(c2ccccc2)c2ccccc2)c2ccccc2)cc1 [Complex 2, [Ru(tzdt)(bipy)(dppb)]PF6] for K-562 (human chronic myelogenous leukemia).
A. 6.05
